The measurements presented in this section are drawn from patent US12209087B2.

Recorded IC50 for the following molecules
biological target: full length AKT E17K (Homo sapiens, UniProt P31749, E17K); construct: host or cells: HEK-293 (ATCC CRL-1573); assay: NanoBRET Target Engagement (TE) Assay; format: cell-based; details: competitive displacement of tracer in cells, read-out: AKT1 E17K IC50
Sequence (P31749 whole entry E17K): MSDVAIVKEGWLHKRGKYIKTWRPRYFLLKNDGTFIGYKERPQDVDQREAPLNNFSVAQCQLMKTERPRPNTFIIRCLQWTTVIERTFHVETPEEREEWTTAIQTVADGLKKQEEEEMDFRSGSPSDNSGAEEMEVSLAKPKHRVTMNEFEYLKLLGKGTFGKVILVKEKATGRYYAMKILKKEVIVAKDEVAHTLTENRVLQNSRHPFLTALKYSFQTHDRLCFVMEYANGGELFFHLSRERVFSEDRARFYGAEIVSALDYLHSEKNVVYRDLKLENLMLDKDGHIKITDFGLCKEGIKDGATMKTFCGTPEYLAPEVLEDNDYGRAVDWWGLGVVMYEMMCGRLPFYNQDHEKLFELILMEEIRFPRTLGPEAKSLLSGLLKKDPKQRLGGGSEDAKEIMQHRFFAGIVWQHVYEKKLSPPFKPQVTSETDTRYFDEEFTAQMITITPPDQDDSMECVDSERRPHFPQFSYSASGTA

Known IC50 results, listed for orientation:
>>> test_value("N#Cc1ncnc(N2CCN(Cc3ccc(-n4c(-c5cccnc5N)nc5ccc(-c6ccc(F)cc6)nc54)cc3)CC2)n1")
"< 15 nM"
>>> test_value("[2H]C1(Nc2ccnc(C#N)n2)CCN(Cc2ccc(-n3c(-c4cccnc4N)nc4ccc(-c5ccc(F)cc5)nc43)cc2)CC1")
"< 15 nM"

Given item N#Cc1nccc(NC2CCN(Cc3ccc(-n4c(-c5cccnc5N)nc5ccc(-c6ccc(F)cn6)nc54)cc3)CC2)n1 , the value recorded as its IC50 is < 15 nM

----------
Entries and their pIC50 values follow.
molecular target: full length AKT E17K (Homo sapiens, UniProt P31749, E17K); construct: host or cells: HEK-293 (ATCC CRL-1573); assay: NanoBRET Target Engagement (TE) Assay; type: cell-based; details: competitive tracer displacement in living cells, read-out: AKT1 E17K IC50
pIC50: −log10 of the molar value.

>>> test_value("N#Cc1ccnc(N2CCN(Cc3ccc(-n4c(-c5cccnc5N)nc5ccc(N6CCOCC6)nc54)cc3)CC2)n1")
"7.22 to 7.82"
>>> test_value("N#Cc1ncccc1C(=O)NC1CCN(Cc2ccc(-n3c(-c4cccnc4N)nc4ccc(-c5ccccc5)nc43)cc2)CC1")
"> 7.82"
>>> test_value("N#Cc1ncnc(N[C@H]2CCCN(Cc3ccc(-n4c(-c5cccnc5N)nc5ccc(-c6ccccc6)nc54)cc3)C2)n1")
"> 7.82"
>>> test_value("N#Cc1ncccc1C(=O)N1CCN(Cc2ccc(-n3c(-c4cccnc4N)nc4cccnc43)cc2)CC1")
"5.00 to 6.22"
>>> test_value("C[C@H]1CN(Cc2ccc(-n3c(-c4cccnc4N)nc4ccc(-c5ccccc5)nc43)cc2)CCN1c1ncnc(C#N)n1")
"7.22 to 7.82"
>>> test_value("C[C@H]1CN(Cc2ccc(-n3c(-c4cccnc4N)nc4ccc(-c5ccccc5)nc43)cc2)C[C@H](C)N1c1ccnc(C#N)n1")
"7.22 to 7.82"

Just so you know, measured pIC50 for N#Cc1cnnc(NC2CCN(Cc3ccc(-n4c(-c5cccnc5N)nc5ccc(-c6ccccc6)nc54)cc3)CC2)c1 came out at 6.22 to 7.22

----------
Reported pIC50 values are given for each entry in this list.
target: full length AKT E17K (Homo sapiens, UniProt P31749, E17K); construct: host or cells: HEK-293 (ATCC CRL-1573); experiment: NanoBRET Target Engagement (TE) Assay; type: cell-based; conditions: competitive displacement of tracer in cells, read-out: AKT1 E17K IC50
pIC50: −log10 of the molar value.

Answered cases to consult:
>>> test_value("[2H]C([2H])([2H])N(c1ccnc(C#N)n1)C1CCN(Cc2ccc(-n3c(-c4cccnc4N)nc4ccc(-c5ccc(F)cc5)nc43)cc2)CC1 [Example 441]")
"> 7.82"
>>> test_value("Cc1nnc(-c2ccc3nc(-c4cccnc4N)n(-c4ccc(CN5CCC(Nc6ccnc(C#N)n6)CC5)cc4)c3n2)o1 [Example 566]")
"7.22 to 7.82"
>>> test_value("N#Cc1nccc(NC2CCN(Cc3ccc(-n4c(-c5ccccc5N)nc5ccc(-c6ccc(F)cn6)nc54)cc3)CC2)n1 [Example 576]")
"7.22 to 7.82"
>>> test_value("Cn1nccc1-c1ccc2nc(-c3cccnc3N)n(-c3ccc(CN4CCC(Nc5ccnc(C#N)n5)CC4)cc3)c2n1 [Example 467]")
"> 7.82"
>>> test_value("N#Cc1nccc(N2CC3(CCN(Cc4ccc(-n5c(-c6cccnc6N)nc6ccc(-c7ccc(F)cc7)nc65)cc4)CC3)C2)n1 [Example 490]")
"> 7.82"

Continue with the next compound.
Please fill in: pIC50 reported for N#Cc1nccc(N2CCC3(CCN(Cc4ccc(-n5c(-c6cccnc6N)nc6ccc(-c7ccccc7)nc65)cc4)CC3)CC2)n1 [Example 364] = 7.22 to 7.82

----------
molecular target: full length AKT E17K (Homo sapiens, UniProt P31749, E17K); construct: host or cells: HEK-293 (ATCC CRL-1573); test: NanoBRET Target Engagement (TE) Assay; type: cell-based; settings: competitive tracer displacement in living cells, read-out: AKT1 E17K IC50
pIC50: −log10 of the molar value.
Recorded pIC50, one value per entry.

>>> test_value("N#Cc1cc(NC2CCN(Cc3ccc(-n4c(-c5cccnc5N)nc5cccnc54)cc3)CC2)ncn1")
"5.00 to 6.22"
>>> test_value("N#Cc1ccc(C(=O)N2CCN(Cc3ccc(-n4c(-c5cccnc5N)nc5ccc(-c6ccccc6)nc54)cc3)CC2)cn1")
"7.22 to 7.82"
>>> test_value("N#Cc1cncc(C(=O)N2CCN(Cc3ccc(-n4c(-c5cccnc5N)nc5cccnc54)cc3)CC2)c1")
"5.00 to 6.22"

Please fill in: pIC50 reported for N#Cc1ncnc(NC2CC3(CCN(Cc4ccc(-n5c(-c6cccnc6N)nc6ccc(-c7ccccc7)nc65)cc4)CC3)C2)n1 = > 7.82

----------
biological target: full length AKT E17K (Homo sapiens, UniProt P31749, E17K); construct: host or cells: HEK-293 (ATCC CRL-1573); test: NanoBRET Target Engagement (TE) Assay; format: cell-based; conditions: competitive tracer displacement in living cells, read-out: AKT1 E17K IC50
Test Readout: IC50

>>> test_value("N#Cc1ccc(C(=O)N2CCN(Cc3ccc(-n4c(-c5cccnc5N)nc5cccnc54)cc3)CC2)nc1 [Example 80]")
"600 to 10000 nM"
>>> test_value("N#Cc1cnnc(NC2CCN(Cc3ccc(-n4c(-c5cccnc5N)nc5cccnc54)cc3)CC2)c1 [Example 51]")
"600 to 10000 nM"
>>> test_value("N#Cc1nc(C(=O)NCc2ccc(-n3c(-c4cccnc4N)nc4cccnc43)cc2)cs1 [Example 244]")
"600 to 10000 nM"
>>> test_value("N#Cc1cc(C(=O)NC2CCN(Cc3ccc(-n4c(-c5cccnc5N)nc5ccc(-c6ccccc6)nc54)cc3)CC2)ncn1 [Example 117]")
"15 to 60 nM"
>>> test_value("N#Cc1nccc(N2CCN(Cc3ccc(-n4c(-c5cccnc5N)nc5ccc(-c6cccc(F)c6)nc54)cc3)CC2)n1 [Example 295]")
"< 15 nM"
>>> test_value("N#Cc1ccc(OC2CCN(Cc3ccc(-n4c(-c5cccnc5N)nc5cccnc54)cc3)CC2)nc1 [Example 1]")
"600 to 10000 nM"

The measured IC50 associated with N#Cc1cc(N2CCN(Cc3ccc(-n4c(-c5cccnc5N)nc5ccc(-c6cccc(F)c6)nc54)cc3)CC2)ncn1 [Example 310] reads < 15 nM

----------
# key: entry, value: IC50
target: full length AKT E17K (Homo sapiens, UniProt P31749, E17K); construct: host or cells: HEK-293 (ATCC CRL-1573); assay: NanoBRET Target Engagement (TE) Assay; format: cell-based; settings: competitive tracer displacement in living cells, read-out: AKT1 E17K IC50

Check out these entries, answers already filled in.
>>> test_value("N#Cc1nccc(C(=O)NC2CCN(Cc3ccc(-n4c(-c5cccnc5N)nc5cccnc54)cc3)CC2)n1")
"60 to 600 nM"
>>> test_value("N#Cc1ccc(-c2ccc3nc(-c4cccnc4N)n(-c4ccc(CN5CCN(c6ccnc(C#N)n6)CC5)cc4)c3n2)cc1")
"15 to 60 nM"
>>> test_value("N#Cc1cccnc1C(=O)N1CCN(Cc2ccc(-n3c(-c4cccnc4N)nc4ccc(-c5ccccc5)nc43)cc2)CC1")
"600 to 10000 nM"
>>> test_value("N#Cc1ncnc(N2C3CCC2CN(Cc2ccc(-n4c(-c5cccnc5N)nc5ccc(-c6ccccc6)nc54)cc2)C3)n1")
"60 to 600 nM"

For the compound C[C@@H]1CN(Cc2ccc(-n3c(-c4cccnc4N)nc4ccc(-c5ccccc5)nc43)cc2)C[C@@H](C)N1c1nccc(C#N)n1 , the measured IC50 on full length AKT E17K (Homo sapiens, UniProt P31749, E17K) was 60 to 600 nM

N#Cc1ccnc(C(=O)N2CCN(Cc3ccc(-n4c(-c5cccnc5N)nc5ccc(-c6ccccc6)nc54)cc3)CC2)c1 tested on full length AKT E17K (Homo sapiens, UniProt P31749, E17K) gave IC50: 60 to 600 nM

Entry N#Cc1cccnc1OC1CCN(Cc2ccc(-n3c(-c4cccnc4N)nc4ccc(-c5ccccc5)nc43)cc2)CC1 ; assay system full length AKT E17K (Homo sapiens, UniProt P31749, E17K); IC50 recorded at 60 to 600 nM

Form field IC50 for item N#Cc1ccncc1C(=O)N1CCN(Cc2ccc(-n3c(-c4cccnc4N)nc4cccnc43)cc2)CC1 on full length AKT E17K (Homo sapiens, UniProt P31749, E17K): 600 to 10000 nM

Tested system full length AKT E17K (Homo sapiens, UniProt P31749, E17K); IC50 recorded for N#Cc1nccc(N2CCN(Cc3ccc(-n4c(-c5cccnc5N)nc5ccc(-c6ccc[nH]c6=O)nc54)cc3)CC2)n1 was < 15 nM
